Measured values drawn from paper PMC8529873 for this set.

Tested on: HaCaT (human skin normal)
Assay: Resazurin cell viability assay, 96 h, HaCaT
Type: cell-based
Conditions: read-out: IC50 (mean ± SEM) HaCaT
Experimental: Thirteen human cancer cells lines and one human nonmalignant cell line were treated with 14α for 96 h. […] For the resazurin assay, after treatment, the medium was removed and 150 μL of resazurin solution (20 μg/mL in medium) was added to each well for 3–6 h. The OD of each well was measured at 540 and 620 nm on a multiwell plate spectrophotometer reader.
reportedMetric: IC50 (nM)

• N.N.[Cl][Pt][Cl] [Cisplatin] = 2100

* * *

test system: A549 human lung cancer cells; experiment: MTT cytotoxicity assay, 48 h, A549 cells; assay type: cell-based; conditions: MTT assay, read-out: IC50 (mean ± SEM) A549 (cancer)
pIC50: −log10 of the molar value.
reportedMetric: pIC50

• N.N.[Cl][Pt][Cl] [Cisplatin] = 4.87

* * *

System: A549 human lung cancer cells
Assay: MTT cytotoxicity assay, 48 h, A549 cells
Format: cell-based
Conditions: Homo sapiens, A549, MTT assay, read-out: IC50 (mean ± SEM) A549 (cancer)
From the text: First, we evaluated the cytotoxicity of our carbohydrate derivatives against MRC-5 human nonmalignant lung cells and A549 human lung cancer cells using the 3-(4,5-dimethylthiazol-2-yl)-2,5-diphenyltetrazolium bromide (MTT) assay under the same experimental conditions. […] In both assays, results were expressed as the percentage of cell viability in relation to untreated cells (controls). […]
pIC50: −log10 of the molar value.
reportedMetric: pIC50

* C[C@@H](O[C@H]1OCCN(Cc2n[nH]c(=O)[nH]2)[C@H]1c1ccc(F)cc1)c1cc(C(F)(F)F)cc(C(F)(F)F)c1 [Aprepitant] | 4.74
